Reference source: ChEMBL document CHEMBL1157841

system: Caco-2; assay: Induction of human ApoA-1 gene expression in human Caco-2 cells co-transfected with luc-beta-galactosidase after 48 hrs assessed as luciferase activity by luminometer relative to control; format: functional
Below: a set of entries, each annotated with reported fold change (FC).
Field format: numeric only.

Illustrative cases are given below, each with its answer.
{"SMILES_CODE": "CN(C)C(=O)c1cc(O)ccc1/C=C/c1ccc(O)cc1", "fold change (FC)": 1.1}
{"SMILES_CODE": "O=C(Nc1ccc(O)cc1)c1ccc(O)cc1", "fold change (FC)": 1.9}
{"SMILES_CODE": "NC(=O)c1cc(/C=C/c2ccc(O)cc2)ccc1O", "fold change (FC)": 2.7}
{"SMILES_CODE": "Oc1ccc(-c2nnc(-c3ccccc3)o2)cc1", "fold change (FC)": 1.9}

fold change (FC) measured on `OCc1cccc(-c2nnc(-c3ccc(O)cc3)o2)c1` = 1.4

fold change (FC) measured on `OCc1cc(O)ccc1/C=C/c1ccc(O)cc1` = 2

fold change (FC) measured on `Oc1ccc(-c2nnc(-c3cccc(O)c3)o2)cc1` = 3.7

fold change (FC) measured on `CS(=O)(=O)c1cc(O)ccc1/C=C/c1ccc(O)cc1` = 2

fold change (FC) measured on `O=C(Nc1ccc(O)cc1)c1ccccc1` = 1.7

----------
tested on: Caco-2; assay: Induction of human ApoA-1 gene expression in human Caco-2 cells co-transfected with luc-beta-galactosidase after 48 hrs assessed as luciferase activity by luminometer relative to resveratrol; format: functional
EXPERIMENTAL_READOUT: fold change (FC)
Field format: numeric only.

Illustrative cases are given below, each with its answer.
{"COMPOUND": "CN(C)C(=O)c1cc(O)ccc1/C=C/c1ccc(O)cc1", "MEASURED_ON": "Caco-2", "fold change (FC)": 0.2}
{"COMPOUND": "CS(=O)(=O)c1cc(O)ccc1/C=C/c1ccc(O)cc1", "MEASURED_ON": "Caco-2", "fold change (FC)": 0.7}
{"COMPOUND": "Oc1ccc(/C=C/c2ccc(O)nc2)cc1", "MEASURED_ON": "Caco-2", "fold change (FC)": 0.4}
{"COMPOUND": "Nc1cc(O)ccc1/C=C/c1ccc(O)cc1", "MEASURED_ON": "Caco-2", "fold change (FC)": 0.9}

fold change (FC) measured on Oc1ccc(/C=C/c2ccc(O)cc2)cc1 [TRANS-4,4'-DIHYDROXYSTILBENE] = 1.6

fold change (FC) measured on `O=S(=O)(Nc1ccc(O)cc1)c1ccc(O)cc1` = 0.4

----------
test system: Caco-2; experiment: Induction of human ApoA-1 gene expression in human Caco-2 cells co-transfected with luc-beta-galactosidase after 48 hrs assessed as luciferase activity by luminometer relative to control; format: functional
Below: a set of entries, each annotated with reported fold change (FC).
Field format: numeric only.

fold change (FC) measured on `COc1cc(O)ccc1/C=C/c1ccc(O)cc1` = 12.5

fold change (FC) measured on `Oc1ccc(/N=N/c2ccc(O)cc2)cc1` = 3.4

fold change (FC) measured on `O=S(=O)(Nc1ccc(O)cc1)c1ccc(O)cc1` = 1.3

fold change (FC) measured on `O=C(O)c1cc(/C=C/c2ccc(O)cc2)ccc1O` = 1.2

fold change (FC) measured on `CC(=O)Nc1cc(O)ccc1/C=C/c1ccc(O)cc1` = 0.9

fold change (FC) measured on `Oc1cccc(-c2nnc(-c3ccccc3)o2)c1` = 2.2

fold change (FC) measured on `CCOC(=O)c1cc(/C=C/c2ccc(O)cc2)ccc1O` = 1.1

fold change (FC) measured on `Oc1ccc(/C=C/c2ccc(O)nc2)cc1` = 1.1

fold change (FC) measured on `Nc1cc(O)ccc1/C=C/c1ccc(O)cc1` = 3.2

fold change (FC) measured on `Oc1ccc(CCc2ccc(O)cc2)cc1` = 3.9

fold change (FC) measured on `O=[N+]([O-])c1cc(O)ccc1/C=C/c1ccc(O)cc1` = 9.4

fold change (FC) measured on `O=C(Nc1ccccc1)c1ccc(O)cc1` = 1.7

fold change (FC) measured on Oc1ccc(/C=C/c2ccc(O)cc2)cc1 [TRANS-4,4'-DIHYDROXYSTILBENE] = 5.1
